Experiment: CREB reporter modulators under forskolin, primary screen, cell-based, PC12, CRE-LacZ reporter, forskolin-stimulated (AID 1146);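 note: PC12 cells with 6xCRE LacZ reporter stimulated by forskolin 10 µM; beta-galactosidase reporter signal reflecting CREB driven transcription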
Conditions: luminescence, 4.5 h, higher = more signal, called active from +8 up or from −8 down
Quick list: z-score per entry.
The answer should be written as a number, with no unit following it.

COMPOUND: CCCCC(=C=CC[C@H](O)c1ccc(OCCO)cc1)C[C@H](O)COCc1ccccc1
z-score: 0.434
--
COMPOUND: [N-]=[N+]=Nc1ccccc1C[C@@]1(C(=O)O)N=C(c2ccc(OCCCO)cc2)O[C@@H]1c1ccccc1N=[N+]=[N-]
z-score: -0.333
--
COMPOUND: [N-]=[N+]=NCc1ccccc1[C@H]1OC(c2ccc(OCCCO)cc2)=N[C@@]1(Cc1ccccc1)C(=O)NCCN1CCOCC1
z-score: -0.355

Now consider the entry below.
Exercise: Query: z-score; subject: CN1C(=O)C2C(C1=O)C1C=C(CCCO)C2C(C2CC2)N1Cc1cc2c(cc1Br)OCO2 (centres undefined)
Key: 2.6
